The origin of these recorded values is ChEMBL document CHEMBL2331477.

Target: Gamma-secretase (Homo sapiens) (UniProt Q96BI3+Q9NZ42+Q8WW43+P49768+Q92542+P49810)
Assay: Inhibition of gamma-secretase (unknown origin) expressed in N2a NL/N cells coexpressing betaAPPNL and NotchdeltaE assessed as Abeta40 secretion at 100 nM by ELISA
Type: cell-based
Active and inactive are the calls of the source. No cut-off for these calls is given here.
measurement_label: inhibition

structure	endpoint_result
CC(=O)N[C@H]1CCC[C@@H]1C(=O)N[C@H]1CCC[C@@H]1C(=O)N[C@@H](CC(N)=O)CC(=O)N[C@H]1CCC[C@@H]1C(=O)N[C@H]1CCC[C@@H]1C(=O)N[C@H]1CCC[C@@H]1C(=O)N[C@H]1CCC[C@@H]1C(=O)N[C@H]1CCC[C@@H]1C(=O)N[C@H]1CCC[C@@H]1C(=O)N[C@H]1CCC[C@@H]1C(=O)N[C@H]1CCC[C@@H]1C(=O)N[C@H]1CCC[C@@H]1C(N)=O	Active
CC(=O)N[C@H]1CCC[C@@H]1C(=O)N[C@H]1CCC[C@@H]1C(=O)N[C@@H](C)CC(=O)N[C@H]1CCC[C@@H]1C(=O)N[C@H]1CCC[C@@H]1C(=O)N[C@H]1CCC[C@@H]1C(=O)N[C@H]1CCC[C@@H]1C(=O)N[C@H]1CCC[C@@H]1C(=O)N[C@H]1CCC[C@@H]1C(=O)N[C@H]1CCC[C@@H]1C(=O)N[C@H]1CCC[C@@H]1C(=O)N[C@H]1CCC[C@@H]1C(N)=O	Active

* * *

Biological target: Gamma-secretase (Homo sapiens) (UniProt Q96BI3+Q9NZ42+Q8WW43+P49768+Q92542+P49810)
Test: Inhibition of gamma-secretase (unknown origin) expressed in N2a NL/N cells coexpressing betaAPPNL and NotchdeltaE assessed as Abeta42 secretion at 100 nM by ELISA
Format: cell-based
Calls of active or inactive are those of the source. The rule behind the calls is not given here.
measurement_label: inhibition

Some solved entries appear below for comparison.
structure	inhibition
CC(=O)N[C@H]1CCC[C@@H]1C(=O)N[C@H]1CCC[C@@H]1C(=O)N[C@H]1CCC[C@@H]1C(=O)N[C@H]1CCC[C@@H]1C(=O)N[C@H]1CCC[C@@H]1C(=O)N[C@H]1CCC[C@@H]1C(=O)N[C@H]1CCC[C@@H]1C(=O)N[C@H]1CCC[C@@H]1C(=O)N[C@H](CC(=O)N[C@H]1CCC[C@@H]1C(=O)N[C@H]1CCC[C@@H]1C(=O)N[C@H]1CCC[C@@H]1C(N)=O)CC(C)C	inactive
CC(=O)N[C@H]1CCC[C@@H]1C(=O)N[C@H]1CCC[C@@H]1C(=O)N[C@H]1CCC[C@@H]1C(=O)N[C@H]1CCC[C@@H]1C(=O)N[C@H]1CCC[C@@H]1C(=O)N[C@@H](CC(N)=O)CC(=O)N[C@H]1CCC[C@@H]1C(=O)N[C@H]1CCC[C@@H]1C(=O)N[C@H]1CCC[C@@H]1C(=O)N[C@H]1CCC[C@@H]1C(=O)N[C@H]1CCC[C@@H]1C(=O)N[C@H]1CCC[C@@H]1C(N)=O	inactive
CC(=O)N[C@H]1CCC[C@@H]1C(=O)N[C@H]1CCC[C@@H]1C(=O)N[C@@H](CC(N)=O)CC(=O)N[C@H]1CCC[C@@H]1C(=O)N[C@H]1CCC[C@@H]1C(=O)N[C@H]1CCC[C@@H]1C(=O)N[C@H]1CCC[C@@H]1C(=O)N[C@H]1CCC[C@@H]1C(=O)N[C@H]1CCC[C@@H]1C(=O)N[C@H]1CCC[C@@H]1C(=O)N[C@H]1CCC[C@@H]1C(=O)N[C@H]1CCC[C@@H]1C(N)=O	Active
CC(=O)N[C@H]1CCC[C@@H]1C(=O)N[C@H]1CCC[C@@H]1C(=O)N[C@@H](CS)CC(=O)N[C@H]1CCC[C@@H]1C(=O)N[C@H]1CCC[C@@H]1C(=O)N[C@H]1CCC[C@@H]1C(=O)N[C@H]1CCC[C@@H]1C(=O)N[C@H]1CCC[C@@H]1C(=O)N[C@H]1CCC[C@@H]1C(=O)N[C@H]1CCC[C@@H]1C(=O)N[C@H]1CCC[C@@H]1C(=O)N[C@H]1CCC[C@@H]1C(N)=O	Active
CC(=O)N[C@H]1CCC[C@@H]1C(=O)N[C@H]1CCC[C@@H]1C(=O)N[C@H]1CCC[C@@H]1C(=O)N[C@H]1CCC[C@@H]1C(=O)N[C@H]1CCC[C@@H]1C(=O)N[C@H](CC(=O)N[C@H]1CCC[C@@H]1C(=O)N[C@H]1CCC[C@@H]1C(=O)N[C@H]1CCC[C@@H]1C(=O)N[C@H]1CCC[C@@H]1C(=O)N[C@H]1CCC[C@@H]1C(=O)N[C@H]1CCC[C@@H]1C(N)=O)CC(C)C	inactive

Continue with the next molecule.
Incoming: Give a short answer stating reported inhibition for `CC(=O)N[C@H]1CCC[C@@H]1C(=O)N[C@H]1CCC[C@@H]1C(=O)N[C@@H](CCCCN)CC(=O)N[C@H]1CCC[C@@H]1C(=O)N[C@H]1CCC[C@@H]1C(=O)N[C@H]1CCC[C@@H]1C(=O)N[C@H]1CCC[C@@H]1C(=O)N[C@H]1CCC[C@@H]1C(=O)N[C@H]1CCC[C@@H]1C(=O)N[C@H]1CCC[C@@H]1C(=O)N[C@H]1CCC[C@@H]1C(=O)N[C@H]1CCC[C@@H]1C(N)=O` .
Outgoing: Active
